IC50 tested on UniProt:P49840: recorded values
Sequence (P49840 whole entry): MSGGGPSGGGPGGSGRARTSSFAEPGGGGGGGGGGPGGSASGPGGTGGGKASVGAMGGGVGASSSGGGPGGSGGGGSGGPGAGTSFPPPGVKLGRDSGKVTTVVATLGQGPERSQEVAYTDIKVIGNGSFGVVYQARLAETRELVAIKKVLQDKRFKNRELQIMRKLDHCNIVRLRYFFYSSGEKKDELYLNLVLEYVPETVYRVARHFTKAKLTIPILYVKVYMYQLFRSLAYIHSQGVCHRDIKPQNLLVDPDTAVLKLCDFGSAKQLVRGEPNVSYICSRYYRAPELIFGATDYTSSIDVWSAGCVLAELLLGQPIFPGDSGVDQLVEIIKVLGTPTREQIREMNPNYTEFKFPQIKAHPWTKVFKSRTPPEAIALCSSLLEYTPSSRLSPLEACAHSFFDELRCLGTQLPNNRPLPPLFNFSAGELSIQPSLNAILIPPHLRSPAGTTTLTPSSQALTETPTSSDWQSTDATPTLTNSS

{"compound": "CC1(C)CC(=O)C2=C(C1)NC1=C(CN=N1)C21COC2(CN(C(=O)CC3CCCCC3)C2)C1 (stereo not drawn) [US20250313563, Compound 947305]", "IC50": "< 100 nM"}
{"compound": "Cn1nccc1-c1cccc2c1CCC[C@@]21C2=CN=NC2NC2=C1C(=O)CC(C)(C)C2 (stereo partly drawn) [US20250313563, Compound 945551]", "IC50": "< 100 nM"}
{"compound": "CCC1(c2cccc(N3CCCCC3)c2)C2=C(CC(C)(C)CC2=O)NC2N=NC(C)=C21 (stereo not drawn) [US20250313563, Compound 877311]", "IC50": "< 100 nM"}

For each entry beneath this line, provide reported IC50.
1. CCN(C(C)=O)c1cccc([C@@]2(CC)C3=CN=NC3NC3=C2C(=O)CC(C)(C)C3)c1 (stereo partly drawn) [US20250313563, Compound 909214]
2. CCC1(c2cccc(N3C[C@H](C)C[C@H](C)C3)c2)C2=CN=NC2NC2=C1C(=O)CC(C)(C)C2 (stereo partly drawn) [US20250313563, Compound 885237]
3. CC[C@@]1(c2cccc(N(C)c3ncccn3)c2)C2=CN=NC2NC2=C1C(=O)NC(C)(C)C2 (stereo partly drawn) [US20250313563, Compound 947826]
4. CCc1cccc(N(C)c2cccc(C3(CC)C4=CN=NC4NC4=C3C(=O)CC(C)(C)C4)c2)n1 (stereo not drawn) [US20250313563, Compound 944023]
5. CC[C@@]1(c2cccc(C(F)(F)F)c2)C2=CN=NC2NC2=C1C(=O)N(c1cnn(C)c1C)CC2 (stereo partly drawn) [US20250313563, Compound 952257]

# output
< 100 nM
100 to 1000 nM
< 100 nM
< 100 nM
< 100 nM
